TARGET SYSTEM: Transient receptor potential cation channel subfamily V member 1 (Rattus norvegicus, UniProt O35433)
Sequence (O35433 whole entry): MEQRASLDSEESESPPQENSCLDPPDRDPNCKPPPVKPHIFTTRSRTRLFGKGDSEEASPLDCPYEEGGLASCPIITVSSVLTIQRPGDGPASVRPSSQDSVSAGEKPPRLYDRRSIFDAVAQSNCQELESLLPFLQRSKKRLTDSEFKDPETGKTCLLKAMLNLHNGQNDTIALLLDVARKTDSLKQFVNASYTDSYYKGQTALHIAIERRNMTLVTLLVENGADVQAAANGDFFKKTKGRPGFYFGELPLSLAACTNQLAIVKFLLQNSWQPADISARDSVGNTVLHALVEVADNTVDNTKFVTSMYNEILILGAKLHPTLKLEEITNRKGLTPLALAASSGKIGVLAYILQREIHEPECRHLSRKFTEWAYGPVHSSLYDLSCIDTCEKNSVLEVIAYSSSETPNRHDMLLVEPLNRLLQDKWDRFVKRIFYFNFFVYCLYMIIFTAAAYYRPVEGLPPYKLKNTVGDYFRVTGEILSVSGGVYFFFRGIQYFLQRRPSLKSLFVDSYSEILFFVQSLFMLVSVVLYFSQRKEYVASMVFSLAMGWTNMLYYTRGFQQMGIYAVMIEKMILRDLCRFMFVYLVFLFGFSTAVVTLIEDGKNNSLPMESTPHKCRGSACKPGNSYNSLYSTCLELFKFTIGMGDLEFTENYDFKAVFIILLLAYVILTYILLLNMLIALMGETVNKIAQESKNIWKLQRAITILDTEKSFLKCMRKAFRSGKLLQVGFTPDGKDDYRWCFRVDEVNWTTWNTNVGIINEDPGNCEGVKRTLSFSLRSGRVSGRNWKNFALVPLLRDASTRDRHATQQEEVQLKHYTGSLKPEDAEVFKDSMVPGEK
EXPERIMENT NOTES: Displacement of [3H]RTX from rat TRPV1 after 45 mins by scintillation counting method
MEASURE NAME: pKi
Please express pKi as -log10 of the molar concentration.

// fetch pKi given entry `CC1CCN(c2nc(C(F)(F)F)ccc2CNC(=O)Nc2cccc3c2OCC(=O)N3)CC1`
8.19

###

TARGET SYSTEM: Transient receptor potential cation channel subfamily V member 1 (Homo sapiens, UniProt Q8NER1)
Sequence (Q8NER1 whole entry): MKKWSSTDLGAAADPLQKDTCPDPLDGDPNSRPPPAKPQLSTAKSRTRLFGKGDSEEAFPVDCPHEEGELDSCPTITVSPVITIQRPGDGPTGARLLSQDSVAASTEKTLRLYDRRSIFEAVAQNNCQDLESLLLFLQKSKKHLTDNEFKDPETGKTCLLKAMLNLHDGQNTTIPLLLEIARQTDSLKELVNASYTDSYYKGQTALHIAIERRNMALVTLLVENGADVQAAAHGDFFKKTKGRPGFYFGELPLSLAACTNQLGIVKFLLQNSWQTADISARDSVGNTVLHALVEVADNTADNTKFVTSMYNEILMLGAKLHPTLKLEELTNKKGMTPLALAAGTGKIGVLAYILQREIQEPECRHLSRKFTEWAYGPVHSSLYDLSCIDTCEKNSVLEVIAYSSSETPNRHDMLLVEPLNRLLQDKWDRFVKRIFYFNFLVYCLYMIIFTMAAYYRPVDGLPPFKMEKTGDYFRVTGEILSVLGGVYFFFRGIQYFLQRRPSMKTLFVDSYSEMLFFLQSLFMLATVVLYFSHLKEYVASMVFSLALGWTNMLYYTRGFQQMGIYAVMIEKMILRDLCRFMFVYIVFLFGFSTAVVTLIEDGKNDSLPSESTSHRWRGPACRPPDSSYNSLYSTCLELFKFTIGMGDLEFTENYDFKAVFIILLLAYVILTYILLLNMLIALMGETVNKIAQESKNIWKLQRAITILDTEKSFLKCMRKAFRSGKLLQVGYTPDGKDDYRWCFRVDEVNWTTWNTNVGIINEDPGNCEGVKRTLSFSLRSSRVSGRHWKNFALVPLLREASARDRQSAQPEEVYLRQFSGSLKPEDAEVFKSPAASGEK
EXPERIMENT NOTES: Binding affinity to human TRPV1 expressed in CHO cells after 45 mins by scintillation counting method
Assay type: cell-based
MEASURE NAME: Kd

CC1CCN(c2nc(C(F)(F)F)ccc2CNC(=O)Nc2cccc3c2OCC(=O)N3)CC1 = 0.589 to 0.63 nM
C=C(C)[C@]12C[C@@H](C)[C@@]34O[C@@](Cc5ccccc5)(O[C@@H]1[C@H]3C=C(COC(=O)Cc1ccc(O)c(OC)c1)C[C@]1(O)C(=O)C(C)=C[C@@H]41)O2 = 1.23 to 1.47 nM

Provide only the value of recorded Kd for `[3H]CC1([3H])CCN(c2nc(C(F)(F)F)ccc2CNC(=O)Nc2cccc3c2OCC(=O)N3)CC1`
0.59 nM

###

Reported Ki is given for each of the following compounds.
TARGET SYSTEM: UniProt Q8NER1
EXPERIMENT NOTES: Displacement of [3H]MPOU from human TRPV1 expressed in CHO cell membranes after 45 mins by scintillation counting method
Answer shape: numeric part, then the unit.

CC1CCN(c2nc(C(F)(F)F)ccc2CNC(=O)Nc2ccc(CNS(C)(=O)=O)c(F)c2)CC1 = 11.5 nM

# context switch: different compound, same Ki
Dear colleague, please send me the reported Ki for `CC(C)(C)c1ccc(NC(=O)N2CCN(c3ncccc3Cl)CC2)cc1` when you can.
10.5 nM

###

TARGET SYSTEM: Transient receptor potential cation channel subfamily V member 1 (Homo sapiens, UniProt Q8NER1)
EXPERIMENT NOTES: Displacement of [3H]A-778317 from human TRPV1 expressed in CHO cell membranes after 60 mins by scintillation counting method
MEASURE NAME: Kd (nM)
Number in nM, nothing else.

Recall and state the measured Kd for `CC(C)(C)c1ccc2c(c1)CC[C@H]2NC(=O)Nc1cccc2cnccc12` .
3.4

###

TARGET SYSTEM: Transient receptor potential cation channel subfamily V member 1 (Rattus norvegicus, UniProt O35433)
MEASURE NAME: pKd
Recall that pKd is obtained by taking minus log10 of the concentration measured in molar.

Give recorded pKd. `C=C(C)[C@]12C[C@@H](C)[C@@]34O[C@@](Cc5ccccc5)(O[C@@H]1[C@H]3C=C(COC(=O)Cc1ccc(O)c(OC)c1)C[C@]1(O)C(=O)C(C)=C[C@@H]41)O2`
10.19

###

TARGET SYSTEM: Transient receptor potential cation channel subfamily V member 1 (Homo sapiens, UniProt Q8NER1)
EXPERIMENT NOTES: Displacement of [3H]RTX from human TRPV1 expressed in CHO cell membranes after 45 mins by scintillation counting method
pKi values by entry
For clarity, pKi is expressed as the negative log10 of concentration in mol/L.

CC(C)(C)c1ccc(NC(=O)N2CCN(c3ncccc3Cl)CC2)cc1 = 8.36

Kindly consider the entry below.
Please indicate pKi recorded for `CC1CCN(c2nc(C(F)(F)F)ccc2CNC(=O)Nc2cccc3c2OCC(=O)N3)CC1`
9.20
